- Assay system: human IDO1 (Homo sapiens, UniProt P14902)
- Sequence (P14902 whole entry): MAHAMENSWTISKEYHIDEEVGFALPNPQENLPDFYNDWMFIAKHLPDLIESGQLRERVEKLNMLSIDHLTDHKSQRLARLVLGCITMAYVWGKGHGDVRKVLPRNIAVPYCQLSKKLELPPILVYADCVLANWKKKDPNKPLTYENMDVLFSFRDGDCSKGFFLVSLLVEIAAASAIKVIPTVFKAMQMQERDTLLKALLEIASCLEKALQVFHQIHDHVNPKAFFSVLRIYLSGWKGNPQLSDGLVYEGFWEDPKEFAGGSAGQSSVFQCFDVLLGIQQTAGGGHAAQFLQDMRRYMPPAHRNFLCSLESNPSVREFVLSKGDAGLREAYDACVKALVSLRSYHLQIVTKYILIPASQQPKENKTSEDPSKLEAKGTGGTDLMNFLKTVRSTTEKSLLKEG
- Protocol description: cell-free recombinant hIDO1 enzymatic assay
- Format: biochemical
- Condition info: Figure 4, read-out: IC50 (enzyme assay)
pIC50: −log10 of the molar value.

Compound: Cc1nc2onc(N)c2c(C)c1Cl [Compound W-0019482]
pIC50: 5.73

---

Recorded IC50, one value per entry.
- Assay system: human IDO1 (Homo sapiens, UniProt P14902)
- Protocol description: LLTC-hIDO1 cell-based assay (kynurenine in supernatant)
- Parameters: host or cells: murine LLTC Lewis lung carcinoma cells
- Condition info: Table 2; LLTC-hIDO1 cells; read-out: IC50 (µM) LLTC-hIDO1

Compound smiles: Nc1noc2ncc([N+](=O)[O-])cc12
Units of measure: µM
IC50: 0.92
--
Compound smiles: Cc1nc2onc(NC(=O)Nc3ccccc3)c2c(C)c1Cl
Units of measure: µM
IC50: 2.06
--
Compound smiles: Nc1noc2ncc(Br)cc12
Units of measure: µM
IC50: 0.66
--
Compound smiles: Nc1noc2nc(C(F)(F)F)ccc12
Units of measure: µM
IC50: 1.14
--
Compound smiles: COc1ccc2c(N)noc2n1
Units of measure: µM
IC50: 8.88
--
Compound smiles: Nc1noc2ncc(Cl)cc12
Units of measure: µM
IC50: 0.7

---

- Assay system: human IDO1 (Homo sapiens, UniProt P14902)
- Protocol description: LLTC-hIDO1 cell-based assay (kynurenine in supernatant)
- Set-up: host or cells: murine LLTC Lewis lung carcinoma cells

Compound: c1ccc2c(c1)Nc1ccccc1O2 [Compound W-0020227]
Assay system: human IDO1 (Homo sapiens, UniProt P14902)
IC50 / µM: 1.52

---

- Assay system: human IDO1 (Homo sapiens, UniProt P14902)
- Protocol description: LLTC-hIDO1 cell-based assay (kynurenine in supernatant)
- Set-up: host or cells: murine LLTC Lewis lung carcinoma cells
- Condition info: Figure 4; LLTC-hIDO1 cell-based assay; read-out: IC50 (cell assay)
Recorded endpoint: IC50

Compound smiles: Cc1nc2onc(N)c2c(C)c1Cl
Assay system: human IDO1 (Homo sapiens, UniProt P14902)
Test result: 0.0661 µM

---

- Assay system: human IDO1 (Homo sapiens, UniProt P14902)
- Protocol description: LLTC-hIDO1 cell-based assay (kynurenine in supernatant)
- Set-up: host or cells: murine LLTC Lewis lung carcinoma cells
- Condition info: Table 2; LLTC-hIDO1 cells; read-out: IC50 (µM) LLTC-hIDO1
Cut-off 0.3 µM on IC50: below means true, at or above means false.

Molecule: Nc1noc2nc(-c3ccccc3)ccc12 [SN36796]
Group: false
--
Molecule: Nc1noc2ncncc12 [SN36704]
Group: false
--
Molecule: Cc1cc(Cl)nc2onc(N)c12 [SN37313]
Group: true
--
Molecule: Nc1noc2ncc(I)cc12 [SN36896]
Group: false
--
Molecule: Nc1noc2nc3ccccc3cc12 [SN36500]
Group: false
--
Molecule: Cc1nc2onc(N)c2c(C)c1Cl [Compound W-0019482]
Group: true

---

- Protocol description: in vivo
- Condition info: C57Bl/6, mouse, ip

Compound smiles: Cc1nc2onc(N)c2c(C)c1Cl
MTD / mg/kg: 150

---

- Assay system: murine IDO1 (Mus musculus, UniProt P28776)
- Construct: expressed in transfected cells; host or cells: murine LLTC Lewis lung carcinoma cells
- Sequence (P28776 whole entry): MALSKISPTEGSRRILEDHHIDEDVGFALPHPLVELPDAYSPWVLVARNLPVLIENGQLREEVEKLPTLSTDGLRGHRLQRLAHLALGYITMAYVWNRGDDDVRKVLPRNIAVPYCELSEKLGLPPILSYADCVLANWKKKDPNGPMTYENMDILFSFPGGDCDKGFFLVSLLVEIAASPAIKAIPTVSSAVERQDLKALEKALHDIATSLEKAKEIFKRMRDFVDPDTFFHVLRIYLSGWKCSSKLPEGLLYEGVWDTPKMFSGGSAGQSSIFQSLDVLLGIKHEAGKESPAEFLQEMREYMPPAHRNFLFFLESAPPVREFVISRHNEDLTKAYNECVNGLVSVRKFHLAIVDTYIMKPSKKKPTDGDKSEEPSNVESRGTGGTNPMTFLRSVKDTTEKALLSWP
- Protocol description: LLTC-mIDO1 cell-based assay (kynurenine in supernatant)
- Condition info: Table 1; LLTC-mIDO1 cells, 24 h culture with compound; read-out: IC50 (µM) LLTC-mIDO1
Cut-off 10 µM on IC50: below means Yes, at or above means No.

Compound: C/C(=N\Nc1ccc(F)cc1F)c1ccc(N2CCOCC2)cc1
Group: No
--
Compound: COc1cc(/C(C)=N/Nc2ccc(Cl)c(Cl)c2)cc(OC)c1OC
Group: No
--
Compound: Cc1ccc(N/N=C2/CCCNC2=O)cc1
Group: No
--
Compound: O=C(O)c1coc2c1C(=NNc1ccccc1)CCC2
Group: Yes
--
Compound: CC(C)N1CCC(=NNc2ccc(Cl)c(Cl)c2)CC1
Group: Yes
--
Compound: NC(=O)SCC(=O)Nc1ccc(F)cc1
Group: No
--
Compound: Fc1ccc(N/N=C2/CCCc3ccccc32)c(F)c1
Group: Yes
--
Compound: Cc1ccc(C)c(C2=Nn3c(COc4ccccc4F)nnc3SC2C)c1 (stereo not shown)
Group: No
--
Compound: C/C(=N\Nc1ccc(F)cc1F)c1cccs1
Group: No
--
Compound: Cc1nc2onc(N)c2c(C)c1Cl
Group: Yes
